- Test system: OVCAR-3 ovarian
- protocol-description: NCI tumour cell line growth inhibition, 48 h
// class 0 strictly below 30 µM in TGI; class 1 otherwise

• Nc1c(S(=O)(=O)O)cc2c(c1Cl)C(=O)c1ccccc1C2=O = class 1
• c1ccc2c[n+](Cc3ccnc4ccccc34)ccc2c1 = class 1
• COc1ccc(OC)c2c1-c1nnnn1CCC2(C)C = class 1
• Cc1cccc2c1CC1(Cc3c(C)cccc3C1=O)C2=O = class 1
• Cn1cc(C2=C(c3cn(CCCN/C(N)=N\[N+](=O)[O-])c4ccccc34)C(=O)NC2=O)c2ccccc21 = class 0
• OC(c1cc2c(Cl)cc(Cl)cc2c2cc(C(F)(F)F)ccc12)C1CCCCN1 (stereo unspecified) = class 0
• FC1(F)SC2CCCCCCCCCCC2C1(F)F (stereo unspecified) = class 1
• COc1cc2c(cc1OC)-c1c(c3ccc([N+](=O)[O-])cc3c(=O)n1CCCBr)C2=O = class 1
• C/C(=N\Nc1nc2ccccc2[nH]1)c1ccc2ccccc2n1 = class 0
• CCOC(=O)C(/C=N/C(N)=S)=C(/O)c1ccccc1 = class 1
• COc1cc(-c2cc(C(=O)N3CCN(C(=O)c4ccccc4NCc4cccs4)CC3)nc3cc(-c4ccccc4)nn23)cc(OC)c1OC = class 0
• COC(=O)Cc1c(-c2c(CC(=O)OC)c3ccccc3n2C2OC(COC3OC(COC(C)=O)C(OC(C)=O)C(OC(C)=O)C3OC(C)=O)C(O)C(O)C2O)[nH]c2ccccc12 (stereo unspecified) = class 1
• COc1ccc(C2=Nn3c(C)nnc3S/C2=C\c2ccc(-c3ccc([N+](=O)[O-])cc3)o2)cc1 = class 1
• CC(C)N=C(NC#N)NS(=O)(=O)c1cnccc1NC1CCCCCCC1 = class 1
